target: T1, Human LRP-8 (isoform 3) expressed on cells (human, UniProt Q14114 33-963); assay: cell-based binding assay, hLRP8
T1 construct: also called hLRP-8; huLRP-8
T1 sequence (Q14114 other isoform, or with tags, fused parts or gaps limits assumed): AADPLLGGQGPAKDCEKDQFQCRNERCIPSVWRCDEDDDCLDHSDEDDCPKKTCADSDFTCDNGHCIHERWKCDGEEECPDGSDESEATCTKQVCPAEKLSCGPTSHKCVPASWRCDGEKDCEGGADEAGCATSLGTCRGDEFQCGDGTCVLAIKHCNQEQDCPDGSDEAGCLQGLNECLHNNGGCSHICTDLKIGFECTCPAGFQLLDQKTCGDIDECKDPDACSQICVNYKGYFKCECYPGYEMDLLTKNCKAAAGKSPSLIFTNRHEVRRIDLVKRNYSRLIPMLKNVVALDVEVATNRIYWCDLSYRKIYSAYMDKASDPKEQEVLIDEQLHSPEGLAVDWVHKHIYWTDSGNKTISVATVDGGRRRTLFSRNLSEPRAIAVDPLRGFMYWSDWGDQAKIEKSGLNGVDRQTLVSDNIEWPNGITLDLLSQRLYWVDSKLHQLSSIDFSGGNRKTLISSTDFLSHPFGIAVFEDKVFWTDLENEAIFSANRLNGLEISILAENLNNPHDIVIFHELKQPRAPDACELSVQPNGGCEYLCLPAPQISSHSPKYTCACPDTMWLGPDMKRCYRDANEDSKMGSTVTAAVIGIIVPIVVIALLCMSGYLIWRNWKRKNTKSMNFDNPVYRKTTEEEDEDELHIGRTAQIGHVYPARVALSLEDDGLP
assay.metric: EC50
# number then unit; no other words

The cases that follow already have their EC50 on record.
[[record]]
binder = "anti-LRP-8 BGK-2C8.8C antibody (antibody, V domains shown) VH: EVQLVESGGGLVQPGRSLKLSCAASGFTVSDYYMAWVRQAPKKGLEWVASISYEGSSTYYGDSVKGRFTISRDNAKSILYLQMNSLRSEDTATYYCARPLRYYGYNYRFAYWGQGTLVTVSS VL: DIQMSQSPPVLSASVGDRVTLSCKASQNIHKNLDWYQQKHGEAPKLLIYYTDNLQTGIPSRFSGSGSGTDYTLTISSLQPEDVATYYCYQYNSGPTFGAGTKLELQ"
assay_metric = "EC50"
reported_value = "2.62 nM"

[[record]]
binder = "anti-LRP-8 BGK.5D10.E4 [r/m IgG2a/K] (antibody, V domains shown, Rat variable domains on mouse IgG2a/kappa) VH: QVQLRETGPDLVQPTQTLSLTCTVSGFSLTNYPVQWVRQPPGSGLEWLGIMWPSGAADFNPALKSRLSISRDTSKSQFFLRMDNLQTDDTAIYFCARGRGYSSPYAMDAWGQGTSVTVSS VL: DIQMTQSPASLSASLGETVSIECLASEDIYNNLAWYQQKPGKSPHLLIHFTSNLQDGVPSRFSGSGSGTQYSLKINSLESEDGATYFCLQDSEYPLTFGSGTKLEIK"
assay_metric = "EC50"
reported_value = "0.24 nM"


Look up EC50 for this binder: anti-LRP-8 BGK.2C8.E6.D3 [r/m IgG2a/K] (antibody, V domains shown) VH: QVTLKESGPGILQPSQTLSLTCTFSGFSLNTYGMGVGWVRQPSGKGLEWLANIWWDDDKFYNPSLKNRLTVSKDTSNNQAFLRITNGDTADTATYFCARILGEDIGGALDAWGQGTSVTVSS VL: DTVLTQSPALAVSPGERVSISCRASEGVNSYMHWYQQNPGQQSKLLIYRTSNLASGVPARFGGSGSGTDFTLTIDPVEADDTATYFCQQSWNDPPTFGGGTKLELK 0.1 nM
